assay: Inhibition of mouse GAT2-mediated [3H]GABA uptake expressed in BHK cells
QUANTITY NAME: IC50 (nM)
A number alone suffices; assume nM.

# IC50 of COc1ccccc1C1(O)CCN(CCCn2c3ccccc3c3ccccc32)CC1 = 1410

* * *

assay: Inhibition of mouse GAT3-mediated [3H]GABA uptake expressed in BHK cells
QUANTITY NAME: pIC50
Keep in mind that pIC50 stands for -log10 of concentration in molar terms.

# pIC50 of COc1ccccc1C1(O)CCN(CCCn2c3ccccc3c3ccccc32)CC1 = 4.39

* * *

target: Sodium- and chloride-dependent GABA transporter 3 (Mus musculus); assay: Inhibition of mouse GAT3-mediated [3H]GABA uptake expressed in human HEK cells
Sequence (P31650 whole entry): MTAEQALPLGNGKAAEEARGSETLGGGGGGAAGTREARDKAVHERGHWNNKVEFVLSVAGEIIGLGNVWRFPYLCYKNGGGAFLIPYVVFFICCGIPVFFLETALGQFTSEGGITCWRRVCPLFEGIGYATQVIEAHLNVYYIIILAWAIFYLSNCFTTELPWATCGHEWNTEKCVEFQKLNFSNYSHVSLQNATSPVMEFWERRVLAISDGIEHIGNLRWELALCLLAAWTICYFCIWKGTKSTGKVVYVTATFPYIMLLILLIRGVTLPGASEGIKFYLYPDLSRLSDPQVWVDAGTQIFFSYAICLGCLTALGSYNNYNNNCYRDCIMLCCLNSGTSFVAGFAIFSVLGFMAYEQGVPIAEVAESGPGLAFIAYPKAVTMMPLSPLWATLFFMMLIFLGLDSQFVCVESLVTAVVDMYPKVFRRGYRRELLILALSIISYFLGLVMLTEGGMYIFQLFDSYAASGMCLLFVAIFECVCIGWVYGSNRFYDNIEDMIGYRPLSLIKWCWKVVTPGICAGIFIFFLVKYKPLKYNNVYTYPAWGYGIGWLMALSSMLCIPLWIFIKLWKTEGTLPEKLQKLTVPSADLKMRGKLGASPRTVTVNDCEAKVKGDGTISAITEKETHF
Overview of reported IC50 across a group of compounds:
A number alone suffices; assume µM.

Worked set:
chemical_smiles=c1ccc(C(CCCNCc2nnnn2C2CCCCC2)c2ccccc2)cc1 result_value=17.4
chemical_smiles=C(CCNCc1nnnn1C1CCCCC1)=C(c1ccccc1)c1ccccc1 result_value=21.4
chemical_smiles=c1ccc(Cn2nnnc2CNCCCC(c2ccccc2)c2ccccc2)cc1 result_value=40.7

# IC50 of CC(C)(C)CC(C)(C)n1nnnc1CNCCCC(c1ccccc1)c1ccccc1 = 12.9

# IC50 of C(CNCc1nnnn1Cc1ccccc1)=C(c1ccccc1)c1ccccc1 = 34.7

# IC50 of c1ccc(Cn2nnnc2CNCC(c2ccccc2)c2ccccc2)cc1 = 44.7

# IC50 of c1ccc(C(NCc2nnnn2C2CCCCC2)c2ccccc2)cc1 = 24.5

# IC50 of CC(C)(C)CC(C)(C)n1nnnc1CNCCC(c1ccccc1)c1ccccc1 = 8.13

# IC50 of c1ccc(Cn2nnnc2CNC(c2ccccc2)c2ccccc2)cc1 = 16.2

# IC50 of COc1ccccc1C1(O)CCN(CCCn2c3ccccc3c3ccccc32)CC1 = 11.7

# IC50 of CC(C)(C)CC(C)(C)n1nnnc1CNCC=C(c1ccccc1)c1ccccc1 = 22.9
